Please go through the items and note down their inhibition at 3 µM.
- system name: 17-beta-hydroxysteroid dehydrogenase type 3 (Homo sapiens, UniProt P37058)
- Sequence (P37058 whole entry): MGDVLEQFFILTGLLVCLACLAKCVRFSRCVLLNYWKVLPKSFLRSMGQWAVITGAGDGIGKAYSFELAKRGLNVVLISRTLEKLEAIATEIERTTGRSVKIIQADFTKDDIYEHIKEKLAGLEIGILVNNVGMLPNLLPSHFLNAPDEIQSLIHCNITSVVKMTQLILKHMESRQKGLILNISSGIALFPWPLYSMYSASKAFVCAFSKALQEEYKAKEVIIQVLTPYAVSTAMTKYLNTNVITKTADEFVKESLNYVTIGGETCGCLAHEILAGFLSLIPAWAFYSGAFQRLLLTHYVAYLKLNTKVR
- assay remarks: Inhibition of human 17-beta-HSD3 expressed in LNCaP cells assessed as reduction in […]-3,17-dione to [14C]-testosterone at 3 uM incubated for 1 hr by thin layer chromatography
- Assay type: cell-based
Reply numerically in %, unit not repeated.

Case `COc1cccc(CN2CCN(C[C@@]3(O)CC[C@@]4(C)[C@@H](CC[C@@H]5[C@@H]4CC[C@]4(C)C(=O)CC[C@@H]54)C3)CC2)c1` , 17-beta-hydroxysteroid dehydrogenase type 3 (Homo sapiens, UniProt P37058), inhibition at 3 µM recorded as 84.4

Case `COc1cccc(CN2CCN(C[C@@]3(O)CC[C@@]4(C)[C@@H](CC[C@@H]5[C@@H]4CC[C@@]4(C)[C@H]5CC[C@]4(C)O)C3)CC2)c1` , 17-beta-hydroxysteroid dehydrogenase type 3 (Homo sapiens, UniProt P37058), inhibition at 3 µM recorded as 20.6

Case `COc1cccc(CN2CCN(C[C@@]3(O)CC[C@@]4(C)[C@@H](CC[C@@H]5[C@@H]4CC[C@@]4(C)[C@H]5CCC4(F)F)C3)CC2)c1` , 17-beta-hydroxysteroid dehydrogenase type 3 (Homo sapiens, UniProt P37058), inhibition at 3 µM recorded as -0.5

Case `COc1cccc(CN2CCN(C[C@@]3(O)CC[C@@]4(C)[C@@H](CC[C@@H]5[C@@H]4CC[C@]4(C)C(=O)C(C)(C)C[C@@H]54)C3)CC2)c1` , 17-beta-hydroxysteroid dehydrogenase type 3 (Homo sapiens, UniProt P37058), inhibition at 3 µM recorded as 51.9

Case `C#C[C@]1(O)CC[C@H]2[C@@H]3CC[C@H]4C[C@@](O)(CN5CCN(Cc6cccc(OC)c6)CC5)CC[C@]4(C)[C@H]3CC[C@@]21C` , 17-beta-hydroxysteroid dehydrogenase type 3 (Homo sapiens, UniProt P37058), inhibition at 3 µM recorded as 4

Case `COc1cccc(CN2CCN(C[C@@]3(O)CC[C@@]4(C)[C@@H](CC[C@@H]5[C@@H]4CC[C@]4(C)[C@H](O)CC[C@@H]54)C3)CC2)c1` , 17-beta-hydroxysteroid dehydrogenase type 3 (Homo sapiens, UniProt P37058), inhibition at 3 µM recorded as 3.8

Case `COc1cccc(CN2CCN(C[C@@]3(O)CC[C@@]4(C)[C@@H](CC[C@@H]5[C@@H]4CC[C@]4(C)[C@@H](O)CC[C@@H]54)C3)CC2)c1` , 17-beta-hydroxysteroid dehydrogenase type 3 (Homo sapiens, UniProt P37058), inhibition at 3 µM recorded as 48.7
